- EXPERIMENTAL_TARGET: UniProt:P04150
- Sequence (P04150 whole entry): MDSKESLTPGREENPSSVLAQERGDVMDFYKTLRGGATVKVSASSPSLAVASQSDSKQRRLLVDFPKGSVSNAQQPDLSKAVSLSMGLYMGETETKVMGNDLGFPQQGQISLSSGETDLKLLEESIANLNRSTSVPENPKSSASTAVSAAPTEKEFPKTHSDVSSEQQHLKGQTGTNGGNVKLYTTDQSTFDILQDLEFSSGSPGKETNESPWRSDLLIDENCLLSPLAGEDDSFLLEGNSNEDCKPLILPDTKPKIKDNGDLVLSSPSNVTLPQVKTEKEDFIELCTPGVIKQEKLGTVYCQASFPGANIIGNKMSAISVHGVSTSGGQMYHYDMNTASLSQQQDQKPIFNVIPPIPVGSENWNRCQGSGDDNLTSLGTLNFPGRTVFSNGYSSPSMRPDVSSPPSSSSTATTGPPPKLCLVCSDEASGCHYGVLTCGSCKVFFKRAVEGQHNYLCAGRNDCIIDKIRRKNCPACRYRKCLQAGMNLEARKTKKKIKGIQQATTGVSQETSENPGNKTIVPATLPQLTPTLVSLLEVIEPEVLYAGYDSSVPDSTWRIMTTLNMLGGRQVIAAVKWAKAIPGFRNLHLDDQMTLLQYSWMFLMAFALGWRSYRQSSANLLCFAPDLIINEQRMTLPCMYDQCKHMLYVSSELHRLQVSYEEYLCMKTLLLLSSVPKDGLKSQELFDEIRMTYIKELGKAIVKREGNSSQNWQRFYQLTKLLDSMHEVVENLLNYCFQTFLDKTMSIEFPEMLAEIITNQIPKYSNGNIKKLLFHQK
- PROTOCOL: Antagonist activity at glucocorticoid receptor in human A549 cells assessed as inhibition of corticoid-induced transcription after 16 hrs by glucocorticoid response element-driven luciferase reporter gene assay
pIC50: −log10 of the molar value.
MEASUREMENT_KIND: pIC50

- SMILES: "C=C1CCO[C@]12CC[C@H]1[C@@H]3CCC4=CC(=O)CCC4=C3[C@@H](c3ccc(N(C)C)cc3)OC[C@@]12C"
  MEASUREMENT_KIND: "pIC50"
  VALUE_MEASURED: 7.21

[a] CN(C)c1ccc([C@H]2OC[C@@]3(C)[C@@H](CC[C@@]3(O)C#Cc3ccccc3)[C@@H]3CCC4=CC(=O)CCC4=C32)cc1
[b] CC#C[C@]1(O)CC[C@H]2[C@@H]3CCC4=CC(=O)CCC4=C3[C@@H](c3ccc(OC)cc3)OC[C@@]21C
*Q* Task for the reader: decide whether a or b has the larger pIC50. Response format: the label of the selected entry.
*A* b
(b: 7.39, a: 6.99)

[I] C#C[C@]1(O)CC[C@H]2[C@@H]3CCC4=CC(=O)CCC4=C3[C@@H](c3ccc(N(C)C)cc3)OC[C@@]21C
[II] COc1ccc([C@H]2OC[C@@]3(C)[C@@H](CC[C@@]3(O)C#Cc3ccc(C(F)(F)F)cc3)[C@@H]3CCC4=CC(=O)CCC4=C32)cc1
*Q* Task for the reader: decide whether I or II has the larger pIC50. Response format: the label of the selected entry.
*A* II
(II: 7.59, I: 7.17)

###

- EXPERIMENTAL_TARGET: Progesterone receptor (Homo sapiens)
- Sequence (P06401 whole entry): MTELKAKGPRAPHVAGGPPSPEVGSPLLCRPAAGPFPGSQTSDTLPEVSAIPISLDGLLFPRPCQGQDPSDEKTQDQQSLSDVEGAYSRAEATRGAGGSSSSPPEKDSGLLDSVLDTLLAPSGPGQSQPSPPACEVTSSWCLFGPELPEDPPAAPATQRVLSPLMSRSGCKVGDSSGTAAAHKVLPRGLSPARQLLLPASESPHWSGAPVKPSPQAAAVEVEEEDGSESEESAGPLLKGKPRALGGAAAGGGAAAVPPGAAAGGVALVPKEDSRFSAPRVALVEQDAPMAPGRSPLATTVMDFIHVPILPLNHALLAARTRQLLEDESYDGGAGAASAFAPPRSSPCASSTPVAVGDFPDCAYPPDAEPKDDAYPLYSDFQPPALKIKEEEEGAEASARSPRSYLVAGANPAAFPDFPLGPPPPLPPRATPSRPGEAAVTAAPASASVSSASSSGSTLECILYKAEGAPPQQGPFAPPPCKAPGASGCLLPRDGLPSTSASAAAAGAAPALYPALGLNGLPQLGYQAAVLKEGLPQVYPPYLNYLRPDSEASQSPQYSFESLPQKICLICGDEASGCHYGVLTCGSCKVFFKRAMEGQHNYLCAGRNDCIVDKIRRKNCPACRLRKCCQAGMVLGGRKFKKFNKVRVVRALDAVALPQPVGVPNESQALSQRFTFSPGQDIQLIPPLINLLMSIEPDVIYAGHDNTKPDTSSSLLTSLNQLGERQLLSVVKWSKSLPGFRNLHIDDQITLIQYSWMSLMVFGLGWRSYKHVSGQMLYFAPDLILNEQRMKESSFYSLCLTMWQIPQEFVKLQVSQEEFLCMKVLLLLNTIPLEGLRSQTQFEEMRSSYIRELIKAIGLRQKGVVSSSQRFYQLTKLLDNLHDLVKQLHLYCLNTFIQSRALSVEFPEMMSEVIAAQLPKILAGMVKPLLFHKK
- PROTOCOL: Antagonist activity at progesterone receptor in human T47D cells assessed as inhibition of progesterone-induced alkaline phosphatase activity
MEASUREMENT_KIND: IC50 (nM)

- SMILES: "C=C1CCO[C@]12CC[C@H]1[C@@H]3CCC4=CC(=O)CCC4=C3[C@@H](c3ccc(N(C)C)cc3)OC[C@@]12C"
  UNIT_DESCRIPTOR: "nM"
  IC50: 1

[1] CC#C[C@]1(O)CC[C@H]2[C@@H]3CCC4=CC(=O)CCC4=C3[C@@H](c3ccc(N(C)C)cc3)OC[C@@]21C
[2] C=C(C)[C@]1(O)CC[C@H]2[C@@H]3CCC4=CC(=O)CCC4=C3[C@@H](c3ccc(SC)cc3)OC[C@@]21C
*Q* Task for the reader: decide whether 1 or 2 has the larger IC50. Response format: the label of the selected entry.
*A* 1
